Below, each of the variants is paired with its reported polymerase ribozyme fitness (log ratio) value.
B1: TPR 5TU (parent)
chain: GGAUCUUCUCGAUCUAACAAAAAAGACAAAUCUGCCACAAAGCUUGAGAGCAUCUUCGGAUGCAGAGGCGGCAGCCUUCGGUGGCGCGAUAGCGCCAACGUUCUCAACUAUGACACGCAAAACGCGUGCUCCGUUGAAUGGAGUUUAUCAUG

Variants of: B1
Assay: polymerase ribozyme fitness, log enrichment relative to wild type (log ratio); higher = more active; in vitro selection for triplet polymerase activity
Fewer inactive variants are shown than the library holds.
When you answer, write just the number.

Past entries and their recorded results:
- A16U C85U C87U A115G: -3.52
- A60G U61G G81C A122C A142U: -3.02
- A19C C35U C95U: 0.438
- G86C U145C: -3.66

Given the entry A47C C85A C118U , report its measured polymerase ribozyme fitness (log ratio).
-0.946

Given the entry A20C C118U , report its measured polymerase ribozyme fitness (log ratio).
-0.906
